Provenance of the data: patent US9204653B2

system: Mycosphaerella graminicola; Anamorph: Septoria tritici; Bayer Code SEPTTR; test: Leaf blotch of wheat, foliar fungicide treatment, one day protectant (1DP) or three day curative (3DC); type: in vivo, Septoria tritici on wheat plants (variety Yuma); conditions: Zymoseptoria tritici, 24 h, one day protectant (1DP), 100 ppm, rating of percent disease control, read-out: SEPTTR 1DP 100 ppm
endpoint label: pest or weed control at 100 ppm

Check out these entries, answers already filled in.
Given `CCOC(=O)Nc1nc(OCc2cccc(OC)c2)ncc1F` , state its recorded pest or weed control at 100 ppm.
76 to 100%

Given `Oc1ncc(F)c(N/N=C/c2ccccc2Cl)n1` , state its recorded pest or weed control at 100 ppm.
0 to 25%

Given `COc1ccc(COc2ncc(F)c(NC(=O)NCc3ccccc3F)n2)cc1F` , state its recorded pest or weed control at 100 ppm.
0 to 25%

Given `Nc1nc(OCc2ccc(C(F)(F)F)nc2)ncc1F` , state its recorded pest or weed control at 100 ppm.
76 to 100%

Answer for every listed entry: what is its pest or weed control at 100 ppm? The entries follow.
1. Cc1ccc(COc2ncc(F)c(/N=C3\CCCCN3C)n2)cc1
2. COc1ccccc1COc1ncc(F)c(NC(=S)NCc2ccccc2F)n1
3. CCCNC(=O)Nc1nc(OCc2cccc(OC)c2)ncc1F
4. CN(C)/C=N/c1nc(OC(=O)Oc2cccc(C(F)(F)F)c2)ncc1F

76 to 100%
76 to 100%
26 to 50%
76 to 100%

###

Consider the following compounds; for each one, report its pest or weed control at 100 ppm.
test system: Mycosphaerella graminicola; Anamorph: Septoria tritici; Bayer Code SEPTTR; assay: Leaf blotch of wheat, foliar fungicide treatment, one day protectant (1DP) or three day curative (3DC); assay type: in vivo, Septoria tritici on wheat plants (variety Yuma); details: Zymoseptoria tritici, 24 h, one day protectant (1DP), 100 ppm, rating of percent disease control, read-out: SEPTTR 1DP 100 ppm

Answer for every listed entry: what is its pest or weed control at 100 ppm? The entries follow.
1. Nc1nc(OCc2ccc(F)cc2C(F)(F)F)ncc1F [Compound 271]
2. Fc1ccccc1CNc1nc(OCc2ccccc2)ncc1F [Compound 750]
3. COc1ccccc1COc1ncc(F)c(/N=C/N(C)C)n1 [Compound 405]
4. CN(C)/C=N/c1nc(OCc2ccccc2)ncc1F [Compound 209]
5. CN1CCCC/C1=N\c1nc(OCc2ccccc2)ncc1F [Compound 421]
6. N#Cc1cccc(COc2ncc(F)c(NC(=S)Nc3ccccc3F)n2)c1 [Compound 781]

1. 76 to 100%
2. 76 to 100%
3. 76 to 100%
4. 76 to 100%
5. 76 to 100%
6. 51 to 75%

###

tested on: Mycosphaerella graminicola; Anamorph: Septoria tritici; Bayer Code SEPTTR; assay: Leaf blotch of wheat, foliar fungicide treatment, one day protectant (1DP) or three day curative (3DC); type: in vivo, Septoria tritici on wheat plants (variety Yuma); conditions: Zymoseptoria tritici, 24 h, one day protectant (1DP), 100 ppm, rating of percent disease control, read-out: SEPTTR 1DP 100 ppm
Consider the following compounds; for each one, report its pest or weed control at 100 ppm.

Check out these entries, answers already filled in.
Lab request: please report pest or weed control at 100 ppm under test system Mycosphaerella graminicola; Anamorph: Septoria tritici; Bayer Code SEPTTR for `C/C=C(C)/C=N/Nc1nc(OCc2cccc(OC)c2)ncc1F`
76 to 100%

Lab request: please report pest or weed control at 100 ppm under test system Mycosphaerella graminicola; Anamorph: Septoria tritici; Bayer Code SEPTTR for `Cc1ccc(COc2ncc(F)c(/N=C/N3CCOCC3)n2)cc1`
76 to 100%

Lab request: please report pest or weed control at 100 ppm under test system Mycosphaerella graminicola; Anamorph: Septoria tritici; Bayer Code SEPTTR for `Nc1nc(OCc2cc3ccccc3s2)ncc1F`
76 to 100%

Lab request: please report pest or weed control at 100 ppm under test system Mycosphaerella graminicola; Anamorph: Septoria tritici; Bayer Code SEPTTR for `Cc1ccc(COc2ncc(F)c(N(C)N)n2)cc1`
76 to 100%

Answer for every listed entry: what is its pest or weed control at 100 ppm? The entries follow.
1. COCCCOc1ncc(F)c(/N=C/N(C)C)n1
2. CC[Si](CC)(CC)Nc1nc(OCc2cccc(F)c2)ncc1F
3. OCNc1nc(OCc2cccc(F)c2)ncc1F

1. 76 to 100%
2. 76 to 100%
3. 76 to 100%

Answer for every listed entry: what is its pest or weed control at 100 ppm? The entries follow.
1. N#Cc1cc(COc2ncc(F)c(N)n2)ccn1
2. CC(Oc1ncc(F)c(N)n1)c1ccc(C(F)(F)F)nc1 (centres unmarked)
3. CCCCOc1ccc(COc2ncc(F)c(N)n2)cc1
4. CC#CCOc1ncc(F)c(N)n1
5. Nc1nc(OCc2snc(Cl)c2Cl)ncc1F

51 to 75%
51 to 75%
76 to 100%
51 to 75%
76 to 100%

Answer for every listed entry: what is its pest or weed control at 100 ppm? The entries follow.
1. CC(C)OC(=O)Oc1ncc(F)c(/N=C/N(C)C)n1
2. Fc1cnc(OCc2cccs2)nc1NCOCc1ccccc1

76 to 100%
76 to 100%

Answer for every listed entry: what is its pest or weed control at 100 ppm? The entries follow.
1. CS(=O)(=O)c1ccc(COc2ncc(F)c(N)n2)cc1
2. NNc1nc(OCc2ccccc2)ncc1F
3. Fc1cnc(OCc2ccccc2)nc1N/N=C/c1ccco1

1. 26 to 50%
2. 76 to 100%
3. 26 to 50%
